test system: protein tyrosine phosphorylation in T cells; test: TCR signaling: phosphotyrosine Western blot after anti-CD3ε bead stimulation; type: cell-based, mouse; conditions: Mgat5+/+ T cells, disaccharide 1/3 serial dilution from 2.4 mM, 1 min stimulation
Experimental Endpoint: Protein phosphorylation induced by anti-CD3ε antibody coated beads

{"Compound": "OC[C@H]1O[C@@](CO)(O[C@H]2O[C@H](CO)[C@@H](O)[C@H](O)[C@H]2O)[C@@H](O)[C@@H]1O [sucrose]", "Test Result": "no effect"}
{"Compound": "OC[C@H]1O[C@H](O[C@H]2[C@H](O)[C@@H](O)[C@H](O)O[C@@H]2CO)[C@H](O)[C@@H](O)[C@@H]1O [maltose]", "Test Result": "no effect"}
